Origin of the recorded values: paper PMC9490236

Conditions: PAMPA
Where a SMILES comes first, the peptide text is derived from it. [ ]: non-standard residue; d: D form. dNMeF = CN[C@H](Cc1ccccc1)C(=O)O; NMeL = CN[C@@H](CC(C)C)C(=O)O; dNMeL = CN[C@H](CC(C)C)C(=O)O; Nle = CCCC[C@H](N)C(=O)O; dNMeA = CN[C@H](C)C(=O)O
REPORTED METRIC: PAMPA_Papp_Avg

These recorded examples may help you get a feel for the data.
CC[C@@H](C)[C@H]1NC(=O)[C@@H]2CCCN2C(=O)[C@H]2CCCN2C(=O)[C@@H](CC(C)C)NC(=O)[C@@H](C)N(C)C(=O)[C@H]2CCCN2C(=O)[C@H]2CCCN2C(=O)[C@H](C(C)C)NC1=O [Design D8.24, DPRO PRO DILE VAL DPRO DPRO *DALA DLEU] (cyclo([dI]V[dP][dP][dNMeA][dL][dP]P)) : BQL
CC(C)[C@@H]1C(=O)N[C@@H](Cc2ccccc2)C(=O)N2CCC[C@H]2C(=O)N(C)[C@H](Cc2ccccc2)C(=O)N[C@H](C)C(=O)N2CCC[C@H]2C(=O)N1C (single isomer, unassigned) [Design D6.8.p2, *DPHE DALA PRO *DVAL PHE PRO] : 1.77e-06 cm/s
CC[C@@H](C)[C@H]1NC(=O)[C@H](C(C)C)NC(=O)[C@H]2CCCN2C(=O)[C@@H]2CCCN2C(=O)[C@H](Cc2ccccc2)NC(=O)[C@@H](CC(C)C)NC(=O)[C@H](Cc2ccccc2)NC(=O)[C@@H]2CCCN2C(=O)[C@@H](C)N(C)C(=O)[C@@H]2CCCN2C(=O)[C@H](CC(C)C)NC(=O)[C@H](CC(C)C)N(C)C1=O [Design D12.4] (cyclo(FP[dP]V[dI][NMeL]LP[dNMeA]PF[dL])) : BQL
CC(C)C[C@H]1C(=O)N2CCC[C@@H]2C(=O)N[C@@H](Cc2ccccc2)C(=O)N2CCC[C@H]2C(=O)N[C@H](C(C)C)C(=O)N[C@H](Cc2ccccc2)C(=O)N1C (single isomer, unassigned) [Design D6.9.p2, DVAL DPHE *LEU DPRO PHE PRO] : 6.77e-06 cm/s
CC[C@@H](C)[C@H]1NC(=O)[C@H](CC(C)C)NC(=O)[C@H](CC(C)C)N(C)C(=O)[C@H]2CCCN2C(=O)[C@@H](CC(C)C)NC(=O)[C@@H]2CCCN2C(=O)[C@H](CC(C)C)N(C)C(=O)[C@@H](Cc2ccccc2)N(C)C(=O)[C@H](CC(C)C)N(C)C(=O)[C@H](CC(C)C)N(C)C1=O [Design D10.12] (cyclo(L[dI][NMeL][NMeL][dNMeF][NMeL]P[dL][dP][NMeL])) : BQL
CC(C)[C@H]1NC(=O)[C@H](C)NC(=O)[C@@H]2CCCN2C(=O)[C@H]2CCCN2C(=O)[C@@H](C(C)C)NC(=O)[C@H]2CCCN2C(=O)[C@@H](C)NC(=O)[C@@H](Cc2ccccc2)N(C)C(=O)[C@H](Cc2ccccc2)NC1=O [Design D9.35] (cyclo(A[dV]F[dNMeF][dA][dP][dV][dP]P)) : BQL

As a next step, examine the compound that follows.
Req: Fill blank: measured PAMPA_Papp_Avg of the compound CCCC[C@@H]1NC(=O)[C@H]2CCCN2C(=O)[C@H](C(C)C)NC(=O)[C@@H](CC(C)C)N(C)C(=O)[C@H](Cc2ccccc2)NC(=O)[C@H](CC(C)C)NC(=O)[C@@H](CC(C)C)N(C)C(=O)[C@@H]2CCCN2C(=O)[C@@H](CC(C)C)NC1=O [Design D9.40] (cyclo(F[dNMeL]V[dP][Nle][dL]P[dNMeL]L)) is ____.
Resp: 2.38E-07
